Data origin, for the record: patent EP4796530A1

protocol text: Mouse pharmacokinetics after intravenous administration (plasma and brain, LC-MS)
Assay type: in vivo
recorded conditions: C57 mice, intravenous 5 mg/kg, brain after cardiac perfusion, read-out: brain drug concentration at 120 min
metric: concentration at 120 min (ng/mL)
Field: numeric (ng/mL). Do not append units.

The examples below pair each entry with its known result.
CC(C)(O)c1coc(S(=O)(=O)NC(=O)Nc2c3c(cc4c2CCC4)CCC3)c1 [MCC950, reference compound]
0
CN(C)Cc1cccc(S(=O)(=O)NC(=O)Nc2c3c(cc4c2CCC4)CCC3)c1O
96
CN(C)Cc1cc(S(=O)(=O)NC(=O)Nc2c3c(cc4c2CCC4)CCC3)ccc1O
3870
CN(C)Cc1cccc(S(=O)(=O)NC(=O)Nc2c3c(cc4c2CCC4)CCC3)c1N
242
CN(C)Cc1cc(S(=O)(=O)NC(=O)Nc2c3c(cc4c2CCC4)CCC3)cc(F)c1O
184
CN1CCc2ccc(S(=O)(=O)NC(=O)Nc3c4c(cc5c3CCC5)CCC4)cc2C1
197

Now for another entry.
## Task Sample COc1ccc(S(=O)(=O)NC(=O)Nc2c3c(cc4c2CCC4)CCC3)cc1CN(C)C — what was its concentration at 120 min?
## Result 35500
